# target.desc: huPD-L1 (Homo sapiens, UniProt Q9NZQ7)
# Sequence (Q9NZQ7 19-290): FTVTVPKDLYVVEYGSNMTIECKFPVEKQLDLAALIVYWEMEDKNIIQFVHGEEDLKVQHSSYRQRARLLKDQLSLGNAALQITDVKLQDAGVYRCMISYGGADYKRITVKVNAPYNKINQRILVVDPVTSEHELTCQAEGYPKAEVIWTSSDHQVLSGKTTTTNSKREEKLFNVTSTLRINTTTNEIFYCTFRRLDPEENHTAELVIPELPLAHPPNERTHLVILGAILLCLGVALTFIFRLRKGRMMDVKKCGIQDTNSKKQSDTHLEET
# assay.comment: Flow binding to CHO cells stably expressing PD-L1
# Set-up: huCTLA4 and huPD-L1, full-length mammalian surface expression constructs were generated; expressed in transfected cells; host or cells: CHO cells, lentiviral transduction, sorted to >98% purity
# condition.info: Table E25; linker variants; 33.3 nM; CHO cells stably expressing PD-L1
readout: PD-L1 MFI at 33.3 nM
Give the value as a plain number.

Known PD-L1 MFI at 33.3 nM results, listed for orientation:
* E35D/D46V/M47L/V68M/L85Q/E88D delta (protein) VIHVTKEVKEVATLSCGHNVSVEELAQTRIYWQKDKKMVLTMMSGVLNIWPEYKNRTIFDITNNLSIMILALRPSDEGTYECVVQKYDKDAFKREHLAEVTLSVKTHTCPPCPAPEAEGAPSVFLFPPKPKDTLMISRTPEVTCVVVDVSHEDPEVKFNWYVDGVEVHNAKTKPREEQYNSTYRVVSVLTVLHQDWLNGKEYKCKVSNKALPAPIEKTISKAKGQPREPQVYTLPPSREEMTKNQVSLTCLVKGFYPSDIAVEWESNGQPENNYKTTPPVLDSDGSFFLYSKLTVDKSRWQQGNVFSCSVMHEALHNHYTQKSLSLSPG | 22538
* E35D/D46V/M47L/V68M/L85Q/E88D GS(G4S)3 (protein, UniProt P33681 35-288, looked up, variant E35D D46V M47L V68M L85Q E88D, GS(G4S)3 linker) T-lymphocyte activation …: VIHVTKEVKEVATLSCGHNVSVEELAQTRIYWQKDKKMVLTMMSGVLNIWPEYKNRTIFDITNNLSIMILALRPSDEGTYECVVQKYDKDAFKREHLAEVTLSVKADFPTPSISDFEIPTSNIRRIICSTSGGFPEPHLSWLENGEELNAINTTVSQDPETELYAVSSKLDFNMTTNHSFMCLIKYGHLRVNQTFNWNTTKQEHFPDNLLPSWAITLISVNGIFVICCLTYCFAPRCRERRRNERLRRESVRPV | 22596

As a next step, examine the molecule that follows.
Prompt line: Quote PD-L1 MFI at 33.3 nM reported for E35D/M47V/N48K/V68M/K89N delta (protein) VIHVTKEVKEVATLSCGHNVSVEELAQTRIYWQKDKKMVLTMMSGDVKIWPEYKNRTIFDITNNLSIMILALRPSDEGTYECVVLKYENDAFKREHLAEVTLSVKTHTCPPCPAPEAEGAPSVFLFPPKPKDTLMISRTPEVTCVVVDVSHEDPEVKFNWYVDGVEVHNAKTKPREEQYNSTYRVVSVLTVLHQDWLNGKEYKCKVSNKALPAPIEKTISKAKGQPREPQVYTLPPSREEMTKNQVSLTCLVKGFYPSDIAVEWESNGQPENNYKTTPPVLDSDGSFFLYSKLTVDKSRWQQGNVFSCSVMHEALHNHYTQKSLSLSPG please.
Response line: 20442

These data points were gathered from patent US20220177587A1.
